Target: T1, cynomolgus monkey KLB (+N-ter FLAG) (cynomolgus monkey, UniProt Q86Z14 53-991 (human entry))
T1 construct: expressed from KLB cDNA on HEK293T cells and read by FACS; also called Cyno KLB
T1 chain: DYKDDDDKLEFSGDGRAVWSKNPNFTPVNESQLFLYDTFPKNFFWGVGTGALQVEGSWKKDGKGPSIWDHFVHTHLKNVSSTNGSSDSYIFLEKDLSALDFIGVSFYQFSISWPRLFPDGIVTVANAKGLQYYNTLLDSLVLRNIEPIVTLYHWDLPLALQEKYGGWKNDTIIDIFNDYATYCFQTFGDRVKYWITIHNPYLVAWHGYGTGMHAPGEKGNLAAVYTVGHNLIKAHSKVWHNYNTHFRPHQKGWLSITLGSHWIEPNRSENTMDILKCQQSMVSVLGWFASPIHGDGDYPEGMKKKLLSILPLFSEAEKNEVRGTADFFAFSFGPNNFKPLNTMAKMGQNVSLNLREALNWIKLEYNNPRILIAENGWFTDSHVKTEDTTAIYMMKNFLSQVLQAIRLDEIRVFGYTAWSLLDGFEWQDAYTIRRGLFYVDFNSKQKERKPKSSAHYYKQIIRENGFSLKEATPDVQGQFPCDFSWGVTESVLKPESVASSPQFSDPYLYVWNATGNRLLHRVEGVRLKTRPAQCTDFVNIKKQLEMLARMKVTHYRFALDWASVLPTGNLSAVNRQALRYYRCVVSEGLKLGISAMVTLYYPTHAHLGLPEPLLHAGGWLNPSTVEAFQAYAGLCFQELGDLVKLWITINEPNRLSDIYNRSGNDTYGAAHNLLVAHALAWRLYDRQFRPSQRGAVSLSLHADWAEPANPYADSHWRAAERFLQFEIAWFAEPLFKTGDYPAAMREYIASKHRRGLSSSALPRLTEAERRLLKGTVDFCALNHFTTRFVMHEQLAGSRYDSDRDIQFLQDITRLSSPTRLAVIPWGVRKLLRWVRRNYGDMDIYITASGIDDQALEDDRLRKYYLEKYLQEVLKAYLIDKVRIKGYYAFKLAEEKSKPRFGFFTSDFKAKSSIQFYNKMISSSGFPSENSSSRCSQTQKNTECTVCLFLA
Assay: FACS on transfected HEK293T cells
Measurement label: binding result

binder="8E1 (antibody, V domains shown, murine hybridoma-derived anti-KLB antibody) VH: EVQLQQSGAELVKPGASVKLSCTAADFNIKDTYMHWVKQRPEQGLEWIGRIDPSNGNAKYDPKFQGKASITADSSSNTAYLHLSSLTSEDTAVYYCASRALGNGYALGYWGQGTSVTVSS VL: DIQMTQSSSYLSVSLGGSVTITCKASDHINNWLAWYQQKPGNAPRLLIYGTTNLETGVPSRFSGSGSGRDYILSITSLQSEDVASYYCQQYWNTPFTFGSGTKLEIK" measurement_label="binding result" endpoint_result=binds
binder="21H3 (antibody, V domains shown, murine hybridoma-derived anti-KLB antibody) VH: QVQLQQPGAEIVKPGASVRLSCKASGYSFTSYWIHWVKQRPGQGLEWIGEIDPSVSNSNYNQKFKGKATLTADKSSSTAYMQLSGLTSEDSAVYFCVRLGVMVYGSSPFWFAYWGQGTLVTVSA VL: DIVMTQSQKFMSTSVGDRVSITCKASQFVSDAVAWYQQKPGQSPKLLICSASYRYTGVPDRFTGSGSGTDFTFTISSVRTEDLAVYYCQQHYIVPYTFGGGTTLEIE" measurement_label="binding result" endpoint_result=binds
binder="14C10 (antibody, V domains shown, murine hybridoma-derived anti-KLB antibody; also called KLBmAb3) VH: QVTLKESGPGILQPSQTLSLTCSFSGFSLSTSAMGIGWIRQPSGKGLEWLAHIWWDDDKRYNPALKSRLTISKDTSRNQVFLKIASVDTADTATYFCARIDGIYDGSFYAMDYWGQGTSVTVSS VL: DIVLTQSPASLAVSLGQRATISCRASESVDSYGNSFMHWYQQKPGQPPKLLIYRASNLESGIPARFSGSGSRTDFTLTINPVEADDVANYYCQQSNEDYTFGGGTKLEIK" measurement_label="binding result" endpoint_result=binds
